# Tested on: K4 kissing-loop RNA reporter;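 also: bound reporter read as fluorescence of individual clusters on recovered sequencing chips by microscopy, with normalized cluster intensities fitted with a binding model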
# protocolSummary: apparent KD of K4 kissing-loop reporter; higher = weaker reporter binding
# experimentalSetup: Eterna round: R107; input ligand: arginine 13.2 mM
reportedProperty: apparent KD of K4 kissing-loop reporter

Item: GGGAGUAGUGCGGCCGCCACUGUGAAAGUAGAAGAAUAUAGUGAUGUUAUAUAGGAACAAAAGAAUAGGACCGGGCAUUAGAUUU [SSTRyptB.X] | System: K4 kissing-loop RNA reporter | apparent KD of K4 kissing-loop reporter: 260 nM

Item: `AAGCAGUCACUCGAAACCAUCGAAGAUGGGCGAGGACCGGUACGGCCGCCACUCGGAGUGAUGUUCCGAAGACUGCAAAAUAAAA` | System: K4 kissing-loop RNA reporter | apparent KD of K4 kissing-loop reporter: 348 nM

Item: GUAUACAUAGAUCACCUUGUAGUGAUGUUGCGAGGACCGGUACGGCCGCCACUCGAAGUACGAAAGUACAAAGAUCUAUGUAUAC [Exclusion Trypto A - 1] | System: K4 kissing-loop RNA reporter | apparent KD of K4 kissing-loop reporter: 131 nM

Item: GGAGGAGAAUAUGAUACCAGCAGAGAGAGAGAGGAAGUAUAGUGAUGUUAUAUGUGAGAAUGCCCUUGGCAGCAUAACAAGAAGG [whbob_SS_Theo_B_sa88] | System: K4 kissing-loop RNA reporter | apparent KD of K4 kissing-loop reporter: 225 nM

Item: AAUUUAUAUUUAUUCUUUAAAUGUUCAGAAGGAGCGUGAAUUAUCACAGGUAGGUCGCUGAGCUAGUGAUGUUGGCUAUAUACUA [whbob_Ex_Arginine_A_2t124] | System: K4 kissing-loop RNA reporter | apparent KD of K4 kissing-loop reporter: 219 nM

Item: UGGACCGCCUGAGGAUAUAGGGACGAGUGAUGUUCGUGGACCAGAGCCAGUGAUGUUGGGUUAUUUCUAGAAGGCGGGCGAACUU [Exclusion FMN B GF11] | System: K4 kissing-loop RNA reporter | apparent KD of K4 kissing-loop reporter: 167 nM

FYI, the data here is from the supplement of paper PMC9170038.
